Test: Pharmacokinetics in plasma after oral administration to ICR mice
Type: in vivo
Settings: mouse, plasma, oral 10 mg/kg, 24 hr

- Smiles text: "OCCOCc1cc(NC2CCOCC2)c2[nH]c(-c3ccccc3)cc2c1"
  concentration at 24 h (ng/mL): 1

====

System: adrenal medullary cells (PC-12)
Experiment: Protective effect against cell death due to RSL3 (LDH release), PC-12
Format: cell-based
Conditions: Rattus norvegicus, RSL3 0.3 μM, 24 hours
pEC50: −log10 of the molar value.
Each entry below carries its recorded pEC50.
Measurement type: pEC50

- Compound: "FC(F)COCc1cc(NC2CCOCC2)c2[nH]c(-c3ccccc3)cc2c1"
  Measurement type: "pEC50"
  Reported measurement: "≥ 7.00"
- Compound: "O=C(NC1CC1)c1cc(NCc2ccncc2)c2[nH]c(-c3ccccc3)cc2c1"
  Measurement type: "pEC50"
  Reported measurement: "6.00 to 7.00"
- Compound: "CC1(O)CCC(OCc2cc(NC3CCOCC3)c3[nH]c(-c4ccccc4)cc3c2)CC1 (centres unmarked)"
  Measurement type: "pEC50"
  Reported measurement: "6.00 to 7.00"
- Compound: "c1ccc(-c2cc3cc(COCCN4CCOCC4)cc(NC4CCCC4)c3[nH]2)cc1"
  Measurement type: "pEC50"
  Reported measurement: "≥ 7.00"
- Compound: "OCCOCc1cc(NC2CCOCC2)c2[nH]c(-c3ccccc3)cc2c1"
  Measurement type: "pEC50"
  Reported measurement: "≥ 7.00"
- Compound: "CCNS(=O)(=O)c1cc(NC2CCCC2)c2[nH]c(-c3ccccc3)cc2c1"
  Measurement type: "pEC50"
  Reported measurement: "6.00 to 7.00"
- Compound: "CCN(CC)C(=O)Cc1cc(NCc2ccccc2)c2[nH]c(-c3ccccc3)cc2c1"
  Measurement type: "pEC50"
  Reported measurement: "≥ 7.00"
- Compound: "OCCOCCOCc1cc(NC2CCOCC2)c2[nH]c(-c3ccccc3)cc2c1"
  Measurement type: "pEC50"
  Reported measurement: "6.00 to 7.00"
